Give measured IC50 for each item. Keep answers brief.
# ASSAY SYSTEM: human DGAT2 (hDGAT2) (Homo sapiens, UniProt Q96PD7)
# Construct: made in house; host or cells: Sf-9 insect cells (baculovirus), membrane fraction
# PROTOCOL TEXT: DGAT2 Enzymatic Activity Assay
# Type: biochemical
# CONDITION LABEL: membrane prep of Sf-9 cells expressing hDGAT2; 25 μM diolein, 5 μM 13C oleoyl-CoA; 13C18-triolein by LC/MS/MS; read-out: DGAT2 IC50

Use the examples below as a reference point.
COMPOUND	ASSAY SYSTEM	IC50
Cc1nnc(NC(=O)c2ccc3c(c2)n(C(C)C)c(=O)n3-c2cccc(OC(F)F)c2)s1 [Example 61]	human DGAT2 (hDGAT2) (Homo sapiens, UniProt Q96PD7)	> 9990 nM
CC(n1c(=O)n(-c2cc(OC(F)(F)F)ccc2F)c2cc(F)c(C(=O)NC3(C)CCS(=O)(=O)CC3)cc21)C(C)(C)O (single isomer, unassigned) [Example 70a]	human DGAT2 (hDGAT2) (Homo sapiens, UniProt Q96PD7)	1 nM
CCOc1cccc(-n2c(=O)n(C(C)C)c3cc(C(=O)N[C@]4(C)CCS(=O)(=O)C4)cnc32)c1 [Example 98]	human DGAT2 (hDGAT2) (Homo sapiens, UniProt Q96PD7)	102 nM
CC(C)n1c(=O)n(-c2cccc(C(F)(F)F)c2)c2ccc(C(=O)NC3(C)CCS(=O)(=O)CC3)cc21 [Example 53]	human DGAT2 (hDGAT2) (Homo sapiens, UniProt Q96PD7)	1830 nM
CCn1c(=O)n(-c2cccc(OC(F)F)c2)c2ccc(C(=O)NC3(C)CS(=O)(=O)C3)cc21 [Example 40]	human DGAT2 (hDGAT2) (Homo sapiens, UniProt Q96PD7)	194 nM

Record IC50 for all entries; do not skip any.
1. CC(n1c(=O)n(-c2cccc(OC(F)(F)C(F)F)c2)c2ccc(C(=O)NC3(C)CS(=O)(=O)C3)cc21)C(C)(C)O (single isomer, unassigned) [Example 76a]
2. CCOc1cccc(-n2c(=O)n(C(C)C)c3cc(C(=O)NC4(C)CCS(=O)(=O)CC4)cnc32)c1 [Example 99]

Reply |
1. 80 nM
2. 52 nM

====

# ASSAY SYSTEM: human DGAT2 (hDGAT2) (Homo sapiens, UniProt Q96PD7)
# Construct: made in house; host or cells: Sf-9 insect cells (baculovirus), membrane fraction
# PROTOCOL TEXT: DGAT2 Enzymatic Activity Assay
# Assay type: biochemical
# CONDITION LABEL: membrane prep of Sf-9 cells expressing hDGAT2; 25 μM diolein, 5 μM 13C oleoyl-CoA; 13C18-triolein by LC/MS/MS; read-out: DGAT2 IC50
OBSERVED PROPERTY: IC50 (µM)
Give bare numbers, in µM.

COMPOUND	UNIT TAG	IC50
CC(n1c(=O)n(-c2cccc(OCC(F)F)c2)c2ccc(C(=O)NC3(C)CCS(=O)(=O)CC3)cc21)C(C)(C)O (single isomer, unassigned) [Example 68b]	µM	0.0018

Record IC50 for all entries; do not skip any.
1. CC(C)Oc1cccc(-n2c(=O)n(C(C)C)c3cc(C(=O)NC4(C)CCS(=O)(=O)CC4)cnc32)c1
2. CC(n1c(=O)n(-c2cc(OCC(F)F)ccc2F)c2cc(F)c(C(=O)NC3(C)CCS(=O)(=O)CC3)cc21)C(C)(C)O (single isomer, unassigned) [Example 75a]

Reply |
0.506
0.0015

Record IC50 for all entries; do not skip any.
1. CC1(NC(=O)c2ccc3c(c2)n(CCC(F)(F)F)c(=O)n3-c2cccc(OC(F)F)c2)CCS(=O)(=O)CC1
2. CC(C)n1c(=O)n(-c2cccc(OC(F)F)c2)c2ccc(C(=O)N[C@H]3CCC[C@@H]3O)cc21
3. CC(C)n1c(=O)n(-c2cccc(OC(F)F)c2)c2ccc(C(=O)NC3(C)CS(=O)(=O)C3)cc21
4. CC(C)n1c(=O)n(-c2cccc(OC(F)F)c2)c2ncc(C(=O)N[C@]3(C)CCS(=O)(=O)C3)cc21
5. CCOc1cc(-n2c(=O)n(C(C)C)c3cc(C(=O)NC4(C(F)F)CCS(=O)(=O)CC4)c(F)cc32)c(F)cn1

Reply |
1: 0.405; 2: 0.779; 3: 0.054; 4: 0.193; 5: 0.027

====

Give measured pIC50 for each item. Keep answers brief.
# ASSAY SYSTEM: human DGAT2 (hDGAT2) (Homo sapiens, UniProt Q96PD7)
# Construct: made in house; host or cells: Sf-9 insect cells (baculovirus), membrane fraction
# Sequence (Q96PD7 1-388): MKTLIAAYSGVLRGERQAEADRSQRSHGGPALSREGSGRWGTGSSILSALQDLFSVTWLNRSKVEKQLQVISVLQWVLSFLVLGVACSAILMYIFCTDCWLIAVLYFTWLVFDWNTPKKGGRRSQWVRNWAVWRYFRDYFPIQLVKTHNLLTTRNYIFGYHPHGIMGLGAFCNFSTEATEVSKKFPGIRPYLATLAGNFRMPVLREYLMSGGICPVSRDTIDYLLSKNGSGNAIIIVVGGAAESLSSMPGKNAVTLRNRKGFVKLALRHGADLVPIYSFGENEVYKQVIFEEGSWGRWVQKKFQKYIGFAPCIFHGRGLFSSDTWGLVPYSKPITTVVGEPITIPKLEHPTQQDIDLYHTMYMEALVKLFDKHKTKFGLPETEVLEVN
# PROTOCOL TEXT: DGAT2 Enzymatic Activity Assay
# Assay type: biochemical
# CONDITION LABEL: membrane prep of Sf-9 cells expressing hDGAT2; 25 μM diolein, 5 μM 13C oleoyl-CoA; 13C18-triolein by LC/MS/MS; read-out: DGAT2 IC50
Numbers only, as −log10 of the molar value.

MOLECULE	pIC50
CC(n1c(=O)n(-c2cccc(OC(F)(F)C(F)F)c2)c2ccc(C(=O)NC3(C)CCS(=O)(=O)CC3)cc21)C(C)(C)O (single isomer, unassigned) [Example 77b]	8.01
CCC(C)n1c(=O)n(-c2cccc(OC(F)F)c2)c2ccc(C(=O)NC3(C)CS(=O)(=O)C3)cc21 (single isomer, unassigned) [Example 46a]	7.09
CC(C)n1c(=O)n(-c2cccc(OC(F)(F)C(F)F)c2)c2ncc(C(=O)N[C@@]3(C)CCS(=O)(=O)C3)cc21 [Example 94]	6.97

Record pIC50 for all entries; do not skip any.
1. CC(C)Oc1cccc(-n2c(=O)n(C(C)C)c3cc(C(=O)NC4(C)CS(=O)(=O)C4)cnc32)c1 [Example 100]
2. CC(C)n1c(=O)n(-c2cccc(OC(F)F)c2)c2c(F)cc(C(=O)NC3(C)CCS(=O)(=O)CC3)cc21 [Example 111]

Reply |
[6.16, 7.17]

====

Give measured IC50 for each item. Keep answers brief.
# ASSAY SYSTEM: human DGAT2 (hDGAT2) (Homo sapiens, UniProt Q96PD7)
# Construct: made in house; host or cells: Sf-9 insect cells (baculovirus), membrane fraction
# PROTOCOL TEXT: DGAT2 Enzymatic Activity Assay
# Assay type: biochemical
# CONDITION LABEL: membrane prep of Sf-9 cells expressing hDGAT2; 25 μM diolein, 5 μM 13C oleoyl-CoA; 13C18-triolein by LC/MS/MS; read-out: DGAT2 IC50
Answers are plain numbers, in nM.

MOLECULE	ASSAY SYSTEM	UNIT TAG	IC50
CCOc1cccc(-n2c(=O)n(C(C)C)c3cc(C(=O)N[C@@]4(C)CCS(=O)(=O)C4)cnc32)c1	human DGAT2 (hDGAT2) (Homo sapiens, UniProt Q96PD7)	nM	154

Record IC50 for all entries; do not skip any.
1. CC(C)n1c(=O)n(-c2cccc(OC(F)F)c2)c2ccc(C(=O)NC3(C)CC(F)(F)C3)cc21
2. CC(n1c(=O)n(-c2cc(OC(F)(F)F)ccc2F)c2ccc(C(=O)NC3(C)CCS(=O)(=O)CC3)cc21)C(C)(C)O (single isomer, unassigned) [Example 71b]

Reply |
182
5.4

====

# ASSAY SYSTEM: human DGAT2 (hDGAT2) (Homo sapiens)
# Construct: made in house; host or cells: Sf-9 insect cells (baculovirus), membrane fraction
# PROTOCOL TEXT: DGAT2 Enzymatic Activity Assay
# Assay type: biochemical
# CONDITION LABEL: membrane prep of Sf-9 cells expressing hDGAT2; 25 μM diolein, 5 μM 13C oleoyl-CoA; 13C18-triolein by LC/MS/MS; read-out: DGAT2 IC50
OBSERVED PROPERTY: pIC50
Numbers only, as −log10 of the molar value.

COMPOUND	ENDPOINT VALUE
CC(C)n1c(=O)n(-c2cccc(OC(F)F)c2)c2ccc(C(=O)NC3(C)CCS(=O)(=O)CC3)c(F)c21	6.59
CC(n1c(=O)n(-c2cc(OC(F)F)ccc2F)c2ccc(C(=O)NC3(C)CCS(=O)(=O)CC3)cc21)C(C)(C)O (single isomer, unassigned) [Example 66a]	8.96
CC(C)n1c(=O)n(-c2cccc(OC(F)(F)C(F)F)c2)c2ncc(C(=O)NC3(C)CS(=O)(=O)C3)cc21	7.62
CC(C)n1c(=O)n(-c2cccc(OC(F)F)c2)c2cc(F)c(C(=O)N[C@@]3(C)CCS(=O)(=O)C3)cc21	7.10
CC(C)n1c(=O)n(-c2cc(OC(F)F)ccc2F)c2ncc(C(=O)NC3(C)CS(=O)(=O)C3)cc21	6.83

Record pIC50 for all entries; do not skip any.
1. C[C@@]1(NC(=O)c2ccc3c(c2)n(C2CCCC2)c(=O)n3-c2cccc(OC(F)F)c2)CCS(=O)(=O)C1
2. CC(C)n1c(=O)n(-c2cc(OC(F)(F)C(F)F)ccn2)c2ccc(C(=O)NC3(C)CCS(=O)(=O)CC3)cc21
3. CC(C)n1c(=O)n(-c2cccc(N(C)C)c2)c2ccc(C(=O)NC3(C)CCS(=O)(=O)CC3)cc21
4. CC(n1c(=O)n(-c2cc(OC(F)(F)F)ccc2F)c2cc(F)c(C(=O)NC3(C)CCS(=O)(=O)CC3)cc21)C(C)(C)O (single isomer, unassigned) [Example 70b]
5. CC(C)n1c(=O)n(-c2cc(OC(F)(F)C(F)F)ccn2)c2cc(F)c(C(=O)NC3(C)CCS(=O)(=O)CC3)cc21
6. CC(n1c(=O)n(-c2cc(OCC(F)F)ccc2F)c2cc(F)c(C(=O)NC3(C)CCS(=O)(=O)CC3)cc21)C(C)(C)O (single isomer, unassigned) [Example 75b]

Reply |
[7.62, 8.49, 5.88, 7.52, 8.26, 8.62]

Record pIC50 for all entries; do not skip any.
1. CC(C)n1c(=O)n(-c2cc(OCC(F)F)ccn2)c2ccc(C(=O)NC3(C)CCS(=O)(=O)CC3)cc21
2. CC(n1c(=O)n(-c2cccc(OC(F)F)c2)c2ccc(C(=O)NC3(C)CCS(=O)(=O)CC3)cc21)C(C)(C)O (single isomer, unassigned) [Example 67b]
3. CCOc1cccc(-n2c(=O)n(C(C)C)c3cc(C(=O)NC4(C)CS(=O)(=O)C4)cnc32)c1

Reply |
[7.29, 6.68, 7.03]

Record pIC50 for all entries; do not skip any.
1. CCOc1cc(-n2c(=O)n(C(C)C(C)(C)O)c3cc(C(=O)NC4(C)CS(=O)(=O)C4)ccc32)c(F)cn1 (single isomer, unassigned) [Example 78a]
2. CC(C)n1c(=O)n(-c2cccc(OC(F)F)c2)c2ccc(C(=O)N[C@@H]3CCCC[C@H]3O)cc21
3. CC(C)n1c(=O)n(-c2cccc(OC(F)(F)F)c2)c2ncc(C(=O)NC3(C)CCS(=O)(=O)CC3)cc21
4. CC(C)n1c(=O)n(-c2cccc(OC(F)F)c2)c2ncc(C(=O)NC3(C)CS(=O)(=O)C3)cc21
5. CC(n1c(=O)n(-c2cccc(OCC(F)F)c2)c2ccc(C(=O)NC3(C)CCS(=O)(=O)CC3)cc21)C(C)(C)O (single isomer, unassigned) [Example 68a]
6. CC(n1c(=O)n(-c2cc(OCC(F)F)ncc2F)c2cc(F)c(C(=O)NC3(C)CCS(=O)(=O)CC3)cc21)C(C)(C)O (single isomer, unassigned) [Example 74a]

Reply |
[6.91, 6.97, 6.63, 7.03, 8.39, 8.21]
